System: OVCAR-5
Assay: NCI tumour cell line growth inhibition, 48 h
Activity calls are given as the source filed them. Cut-off read from the data, not from the text of the source: active = GI50 up to about 1.1 µM and inactive = higher.
quantity_measured: GI50

compound | assay_value
CCCCCCCCCCCCNC(=O)CCC(NC(=O)c1ccc(N(C)Cc2cnc3nc(N)nc(N)c3n2)cc1)C(=O)NCCCCCCCCCCCC (stereo not given) | > 100 µM (inactive)
CCc1ccccc1N1C(=O)C(=O)C(c2nc3ccccc3s2)C(=O)C1=O | > 100 µM (inactive)
CC1=C/C(=N\O)C(C(O)(C(F)(F)F)C(F)(F)F)C(C)(C)C1 (stereo not given) | > 10 µM (inactive)
CC1=NN(c2nc(N)nc(C(C#N)C(=O)c3cc4c(cc3Cl)Sc3nccn3S4(=O)=O)n2)C(C)(C)C1 (stereo not given) | > 100 µM (inactive)
Cc1ccc(SC[C@@]2(C(F)F)NC(=O)NC2=O)cc1 | > 100 µM (inactive)
